Target: SMARCA2 (Homo sapiens)
Sequence (P51531 whole entry): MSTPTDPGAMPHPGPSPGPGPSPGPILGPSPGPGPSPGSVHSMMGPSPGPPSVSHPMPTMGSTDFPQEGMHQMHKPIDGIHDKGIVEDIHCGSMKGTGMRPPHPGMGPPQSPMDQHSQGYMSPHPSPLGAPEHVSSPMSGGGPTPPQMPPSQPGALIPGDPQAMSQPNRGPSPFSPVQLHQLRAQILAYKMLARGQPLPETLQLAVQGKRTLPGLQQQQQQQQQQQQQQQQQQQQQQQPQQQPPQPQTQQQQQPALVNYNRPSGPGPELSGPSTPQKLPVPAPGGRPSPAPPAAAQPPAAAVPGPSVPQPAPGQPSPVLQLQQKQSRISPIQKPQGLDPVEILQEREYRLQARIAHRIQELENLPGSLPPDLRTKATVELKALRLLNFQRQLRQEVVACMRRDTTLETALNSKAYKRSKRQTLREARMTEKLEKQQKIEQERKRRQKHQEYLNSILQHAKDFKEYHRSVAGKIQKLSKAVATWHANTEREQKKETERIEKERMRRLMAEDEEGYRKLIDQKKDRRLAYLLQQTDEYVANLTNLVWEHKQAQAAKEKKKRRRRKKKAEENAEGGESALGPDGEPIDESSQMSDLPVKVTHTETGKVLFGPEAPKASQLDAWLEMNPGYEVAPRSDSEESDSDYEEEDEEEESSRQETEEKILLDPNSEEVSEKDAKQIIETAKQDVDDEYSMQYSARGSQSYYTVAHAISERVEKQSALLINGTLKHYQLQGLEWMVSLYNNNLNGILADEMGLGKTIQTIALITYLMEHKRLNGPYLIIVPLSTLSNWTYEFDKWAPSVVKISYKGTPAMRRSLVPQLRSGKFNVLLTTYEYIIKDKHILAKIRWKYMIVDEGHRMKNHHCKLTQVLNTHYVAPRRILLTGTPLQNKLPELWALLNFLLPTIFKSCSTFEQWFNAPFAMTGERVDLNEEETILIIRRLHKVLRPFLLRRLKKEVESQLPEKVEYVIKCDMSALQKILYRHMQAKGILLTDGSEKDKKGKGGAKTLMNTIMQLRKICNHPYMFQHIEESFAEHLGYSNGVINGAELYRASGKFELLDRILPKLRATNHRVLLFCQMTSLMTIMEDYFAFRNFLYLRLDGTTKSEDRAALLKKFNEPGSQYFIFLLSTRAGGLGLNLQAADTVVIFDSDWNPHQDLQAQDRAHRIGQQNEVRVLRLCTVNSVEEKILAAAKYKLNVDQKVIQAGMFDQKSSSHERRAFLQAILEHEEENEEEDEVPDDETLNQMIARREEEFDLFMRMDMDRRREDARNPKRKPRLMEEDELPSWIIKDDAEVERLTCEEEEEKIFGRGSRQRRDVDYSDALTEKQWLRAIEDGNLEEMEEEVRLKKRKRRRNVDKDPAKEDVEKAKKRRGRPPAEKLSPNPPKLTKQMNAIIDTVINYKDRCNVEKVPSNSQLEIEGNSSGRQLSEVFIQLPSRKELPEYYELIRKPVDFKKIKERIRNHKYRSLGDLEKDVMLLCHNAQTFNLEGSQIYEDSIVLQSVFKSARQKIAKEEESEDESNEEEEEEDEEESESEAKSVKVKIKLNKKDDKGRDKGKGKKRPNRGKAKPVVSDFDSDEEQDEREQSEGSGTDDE
Experiment: MSD SMARCA2 degradation in A549 cell line
Assay type: cell-based
Settings: A549, A549 cells, 24 h
Experimental: Cells were seeded into 96-well plates (A549 cells: 2×10^4 cells/well/100 ul media) abd incubated overnight. The next day, 200 nl compound were added into the intermediate plate with Echo (Labcyte 550) from source plate containing a 3-fold serial dilution from top concentration of 1 mM. […] The MSD plate was washed three times with 150 ul/well of TBST and 150 ul/well of 2×MSD reading buffer diluted from 4× (MSD, R92TC-2) with water was added. Lastly, the MSD instrument was read. […]
measurement name: Dmax

Please indicate Dmax recorded for Cc1ncsc1-c1ccc(CNC(=O)[C@@H]2C[C@@H](O)CN2C(=O)[C@@H](NC(=O)[C@H]2C[C@H](CN3CCC(c4cnc(N5C6CCC5CN(c5cc(-c7ccccc7O)nnc5N)C6)nc4)CC3)C2)C(C)(C)C)cc1 50 to 70%

Please indicate Dmax recorded for Cn1c(=O)n(C2CCC(=O)NC2=O)c2cccc(CN3CCC(OC4CCN(Cc5ccc(C#Cc6cc(NC(=O)Nc7cc(F)ncc7CO)ccn6)cc5)CC4)CC3)c21 (centres unmarked) < 50%

Please indicate Dmax recorded for Cc1ncsc1-c1ccc(CNC(=O)[C@@H]2C[C@@H](O)CN2C(=O)[C@@H](NC(=O)[C@H]2CC[C@H](CN3CCC(n4cc(-c5cc(-c6ccccc6O)nnc5N)cn4)CC3)CC2)C(C)(C)C)cc1 > 90%

Please indicate Dmax recorded for CC(=O)O[C@@H]1C[C@@H](C(=O)NCc2ccc(-c3scnc3C)cc2)N(C(=O)[C@@H](NC(=O)[C@H]2CC[C@H](c3cnc(N4C5CCC4CN(c4cc(-c6ccccc6O)nnc4N)C5)nc3)CC2)C(C)(C)C)C1 > 90%

Please indicate Dmax recorded for Cc1ncsc1-c1ccc(CNC(=O)[C@@H]2C[C@@H](O)CN2C(=O)[C@@H](NC(=O)CN2CCN(C3CCC(c4cnc(N5C6CCC5CN(c5cc(-c7ccccc7O)nnc5N)C6)nc4)CC3)CC2)C(C)(C)C)cc1 (some centres unmarked) > 90%

Please indicate Dmax recorded for Cc1ncsc1-c1ccc(CNC(=O)[C@@H]2C[C@@H](O)CN2C(=O)[C@@H](NC(=O)N[C@H]2CC[C@@H](c3cnc(N4C5CCC4CN(c4cc(-c6ccccc6O)nnc4N)C5)nc3)CC2)C(C)(C)C)cc1 70 to 90%

Please indicate Dmax recorded for Cc1ncsc1-c1ccc(CNC(=O)[C@@H]2C[C@@H](O)CN2C(=O)C(NC(=O)C2(F)CC2)C2CCC(N(C)CCCCCc3cnc(N4C5CCC4CN(c4cc(-c6ccccc6O)nnc4N)C5)nc3)CC2)cc1 (some centres unmarked) < 50%

Please indicate Dmax recorded for Nc1nnc(-c2ccccc2O)cc1N1CC2CCC(C1)N2c1ncc(C2CCN(CCCCCCCCOc3ccc(Oc4ccc(N(Cc5ccccc5)C(=O)CCl)cc4)cc3)CC2)cn1 50 to 70%

Please indicate Dmax recorded for Cc1ncsc1-c1ccc(CNC(=O)[C@@H]2C[C@@H](O)CN2C(=O)[C@@H](NC(=O)N2CCN(Cc3cnc(N4C5CCC4CN(c4cc(-c6ccccc6O)nnc4N)C5)nc3)CC2)C(C)(C)C)cc1 70 to 90%

Please indicate Dmax recorded for Cn1c(=O)n(C2CCC(=O)NC2=O)c2ccc([C@H]3CC[C@@H](N4CCC(c5cnc(N6C7CCC6CN(c6cc(-c8ccccc8O)nnc6N)C7)nc5)CC4)CC3)cc21 (some centres unmarked) > 90%

Please indicate Dmax recorded for Cn1c(=O)n(C2CCC(=O)NC2=O)c2ccc(CCCCCCCCCNCc3cccc(C#Cc4cc(NC(=O)Nc5cc(F)ncc5CO)ccn4)c3)cc21 (centres unmarked) < 50%

Please indicate Dmax recorded for Cc1ncsc1-c1ccc(CNC(=O)[C@@H]2C[C@@H](O)CN2C(=O)[C@@H](NC(=O)CCN2CCC[C@@H](Cn3cc(-c4cc(-c5ccccc5O)nnc4N)cn3)C2)C(C)(C)C)cc1 < 50%

Please indicate Dmax recorded for Cc1ncsc1-c1ccc(CNC(=O)[C@@H]2C[C@@H](O)CN2C(=O)[C@@H](NC(=O)C2CCC(N3CCC(n4cc(-c5cc(-c6ccccc6O)nnc5N)cn4)CC3)CC2)C(C)(C)C)cc1 (some centres unmarked) 70 to 90%

Please indicate Dmax recorded for Nc1nnc(-c2ccccc2O)cc1N1CC2CCC(C1)N2c1ncc(C2CCN(CCCCNC(=O)COc3ccc4c(c3)CCCN4C(=O)CCl)CC2)cn1 < 50%

Please indicate Dmax recorded for Cc1ncsc1-c1ccc(CNC(=O)[C@@H]2C[C@@H](O)CN2C(=O)[C@@H](NC(=O)[C@@H]2CCN(Cc3cnc(N4C5CCC4CN(c4cc(-c6ccccc6O)nnc4N)C5)nc3)C2)C(C)(C)C)cc1 50 to 70%

Please indicate Dmax recorded for COc1ccccc1-c1cc(N2CC3CCC(C2)N3c2ncc(C3CCN(CCCc4ccc5c(c4)n(C)c(=O)n5C4CCC(=O)NC4=O)CC3)cn2)c(N)nn1 (centres unmarked) < 50%

Please indicate Dmax recorded for Cc1ncsc1-c1ccc(CNC(=O)[C@@H]2C[C@@H](O)CN2C(=O)[C@@H](NC(=O)[C@H]2CC[C@H](c3cnc(N4C5CCC4CN(c4cc(-c6ccccc6O)nnc4N)C5)nc3)CC2)C(C)(C)C)c(C(F)(F)F)c1 > 90%

Please indicate Dmax recorded for Cn1c(=O)n(C2CCC(=O)NC2=O)c2ccc(C3CCC(N4CCC(c5cnc(N6C7CCC6CN(c6cc(-c8ccccc8O)nnc6N)C7)nc5)CC4)CC3)cc21 (centres unmarked) > 90%

Please indicate Dmax recorded for O=C1CCC(n2c(=O)oc3c(CCCOC4CCN(Cc5ccc(C#Cc6cc(NC(=O)Nc7cc(F)ncc7CO)ccn6)cc5)CC4)cccc32)C(=O)N1 (centres unmarked) < 50%

Please indicate Dmax recorded for Cc1ncsc1-c1ccc(CNC(=O)[C@@H]2C[C@@H](O)CN2C(=O)[C@@H](NC(=O)[C@H]2C[C@@H](CN3CCC(c4cnc(N5C6CCC5CN(c5cc(-c7ccccc7O)nnc5N)C6)nc4)CC3)C2)C(C)(C)C)cc1 70 to 90%
